Attribution: the nanobody polyreactivity screen of Harvey et al. (2022)

# method: yeast display, Sf9 membrane polyspecificity reagent, FACS + sequencing; frameworks hold sequencing errors

[
  {
    "sequenceData": "QVQLVESGGGLVQAGGSLRLSCAASGFIFGRYAMVWYRQAPGKERHFVASISWSGGSTHYADSVKGRFTISREKAKNTVYLHMNSLKPVDTAVYYCARGFPPYRVTHMNYWGQGTLVTVSS",
    "polyreactivity (PSR sort gate)": "high polyreactivity"
  },
  {
    "sequenceData": "QVQLVESGGGLVQAGGSLRLSCAASGSTYYFYPMGSYRQAPGKERELVAAISFTDTSTYYADSVQGRFTISRDNAKNTVYLQMNSLKPEDTAVYYCAARYAGGYYYWGQGTQVTVSS",
    "polyreactivity (PSR sort gate)": "high polyreactivity"
  },
  {
    "sequenceData": "QVQLVESGGGLVQAGGSLRLSCAASGSTFLVNAMGWYRQAPGKERELVAAITSGGDTNYADSVKGRFTISHDNAKNTVYLQMNSLKPEDTEVYYCATDYFNYRYFDFRWYYYWGQGTQVTVSS",
    "polyreactivity (PSR sort gate)": "high polyreactivity"
  },
  {
    "sequenceData": "QVQLQESGGGLVQAGGSLRLSCAASGHISIKLQRGWYRAAPGKERELVATINLGAITYYADSVKGLITNSRDNAKNTVYLQLNSLKPEDTAVYYCAARWRSGFTSGDYWGQGTQVTVSS",
    "polyreactivity (PSR sort gate)": "low polyreactivity"
  },
  {
    "sequenceData": "QVQLVESGGGLVQAGGSLRLSCAASGSIFQYYAMGWYRQAPGKERELVAAISSGGRTNYADSVKGRFTISRDNAKNTDYLQMNSLKPEDTAVYYCAAARYYYQVYRWEYDYWGQGTQVTVSS",
    "polyreactivity (PSR sort gate)": "high polyreactivity"
  },
  {
    "sequenceData": "QVQLVESGGGLVQAGGSLRLSCAASGRIFRRNAMGWYRQAPGKEREFVATITSGGSTFYADSVKGRFTISRDNAKNTVYLQMNSLKPEDTAVYYCAAPSYNTPFHTPNYSWGQGTQVTVSS",
    "polyreactivity (PSR sort gate)": "low polyreactivity"
  },
  {
    "sequenceData": "QVQLVESGGGLVQAGGSLRLSCAASGSIFVLNAMGWYRQAPGKERELVAAISSADSTTYADSVKGRFTISRDNAKNSVYLQMNSLKPEDTAVYYCAADWWYVLIFDYWGQGTQVTVSS",
    "polyreactivity (PSR sort gate)": "low polyreactivity"
  },
  {
    "sequenceData": "QVQHVDSGGGLVQAGGSLLLSCAASGFTFRTYAMGWYRQAPGKEREFVAAITTSGGSTYYADSVKGRFTISRDNAKNTVYLQMNSLKPEDTAVYYCAAKKATVVYRMEYWGQGTLVTVSS",
    "polyreactivity (PSR sort gate)": "high polyreactivity"
  },
  {
    "sequenceData": "QEQLQESGGGLVQAGGSLRLSCAASGIIFDWFFMGWYRQAPGREREFVAAITYGATTNYADSVKGRFTISRDNGKNTVYLQMNSLKPEDTAVYYCAAVRGRGGTHAYWGQGTQVTVSG",
    "polyreactivity (PSR sort gate)": "low polyreactivity"
  },
  {
    "sequenceData": "QVQLVESGGGLVQAGGSLRLSCAASGITFYLYAMGWYRQAPGKERELVAAISRIGGSTYYADSVKGRFTISRDNAKNTVYLQMNSLKPEDTAVYYCATYYGGSGYDYWGQGTQVTVSS",
    "polyreactivity (PSR sort gate)": "high polyreactivity"
  },
  {
    "sequenceData": "QVQLVESGGGLVQAGGSLRLSCAASGGIFPLYAMGWYRQAPGKERELVASITSGGSTYYADSVKGRFTISRDNAKNTVYLQMNSLKPEDTAVYYCAADLRITSYNSWGQGSQVTVSS",
    "polyreactivity (PSR sort gate)": "low polyreactivity"
  }
]
